Reference for the values: the supplement of paper PMC8728848

Give glycan array binding signal (z-score) for every item shown.
# assay-target: Fuc(a1-3)GlcNAc
# experimental-details: glycan array binding signal (z-score within array); higher = stronger binding
# settings: glycan notation: IUPAC condensed, linker removed
Only a selection was taken, and the strongest signals are over-represented in it overall.
Numbers only.

Solved cases below.
binder: SRS2 (Toxoplasma gondii), O15695 (protein) MATRASLARQKTGAACLAVLTASPSVVAAKPWKRWVGVSVILASAFAVGVSAGPPYRYEPEKFTCRPKKGILSQWVSLLYQVQHNITFACEEATPVPTTLISEEHGLMVCAENMTPEECEANPAPLSAFLPGATKEWVTGDSVLTGLKISVPESQYPANAKSFRVGCRHNTKTGNTCMLTIHVEPRDPAVERQEARCSYTENSTLPKIFVTKDSNTMTLACGPHGAPMPESYTENYCSTPDTCDEKPFTSVIPGYLSKWFFGDPKSPLGARVRIPPEQIPSSPQINYFGCTGPTEGEGPKYNCTVPVPLGGGDPSEGSRPGGGSGGGKRGGGQGGGGSLAGFDFRQGSARHSLPSRMALSASALLAMTALAY
glycan array binding signal (z-score): 0.522

binder: Clone646PsrP (Streptococcus pneumoniae) (protein) MDHHHHHHHHASENLYFQGAPAINASLNIAKSETKVYTGEGVDSVYRVPIYYKLKVTNDGSKLTFTYTVTYVNPKTNDLGNISSMRPGYSIYNSGTSTQTMLTLGSDLGKPSGVKNYITDKNGRQVLSYNTSTMTTQGSGYTWGNGAQMNGFFAKKGYGLTSSWTVPITGTDTSFTFTPYAARTDRIGINYFNGGGKVVESSTTSQSLSQSKSLSVSAS
glycan array binding signal (z-score): 0.18

Alright, here's another binder for you.
Ask: Find the measured glycan array binding signal (z-score) of RbmA (Vibrio cholerae), A0A2H4NFB8 (protein) MSNFKGSIMNKRHYYLASCLALLFSTASYAEVDCELQPVIEANLSLNQNQLASNGGYISSQLGIRNESCETVKFKYWLSIKGPEGIYFPAKAVVGVDTAQQESDALTDGRMLNVTRGFWVPEYMADGKYTVSLQVVAENGEVFKANQEFVKGGDLNSLPELNGLTIDIKNQFGINSVESTGGFVPFTIDLNNGREGEAKVEFWMTAVGPDGLIIPVHSREKWMIIAGNTFSKVRGINFDKSYPAGEYTINAQVVDIVSGERVEQLMTVVKK and report it.
Result: -0.597
